# System: SF-268 CNS
# procedure_summary: NCI-60 one-dose screen, 48 h
# measurement_conditions: 10 µM
The panel holds about 83,000 compounds, 20% with a hit somewhere; the sample as a whole holds those more often. Calls of active or inactive are those of the source. The calls were made as follows: active = growth percent below 10; inactive = the rest.
Write down the outcome that applies. Available outcomes: label 1 = active, label 0 = inactive

Record lookup: outcome of this test for O=C(CCNNC(=O)c1ccncc1)NCc1ccccc1 ?
label 0

Outcome? CCOC(=O)/C(=C/c1ccc(OC)cc1)N(CC)CC
label 0

Outcome? O=C(O)C(Cc1ccccc1)C(=O)O
label 0

GET /call?item= CC(=O)OCCO returns the recorded outcome of this test.
label 0

Please share the test call associated with Oc1ccc(N=Nc2ccc(Br)cc2)c(O)c1 .
label 0

Field: outcome | Entry: O=C(Nc1cc(-c2ccccc2)[nH]n1)c1ccc(Cl)cc1
label 0

Record request — test call for CC(=O)/C(Cc1ccccc1)=N/O
label 0

# lookup: test call for CC(C)(C)c1cc(O)c(C(C)(C)C)cc1O
label 0

Which outcome did this test record for the molecule COc1ccc(C2OC(N)=C(O)C2=O)cc1OC (stereo not given) ?
label 0

Test call for this molecule, please: CCOC(=O)CNN
label 0

Answer briefly: the call reported for O=S(=O)(O)c1ccc(O)c2ccccc12 in this assay.
label 0

Tell me the assay call for CC(=O)c1c[nH]c2ccccc12 please.
label 0

Kindly provide the recorded test outcome for the following molecule: O=c1[nH]nc(SC2CCCCC2)c(=O)[nH]1
label 0

Per the assay record, what outcome was assigned to CC(C)OC(=O)c1cc(NC(=S)OC(C)C)ccc1Cl ?
label 0

GET /call?item= CC(=O)CC(=O)N(C)C returns the recorded outcome of this test.
label 0

Hey, what did the test say about Cc1nc2ccccc2c2nnc(SCC(=O)N(Cc3ccccc3)c3ccccc3)n12 ?
label 0

Could you check what this test reported for O=C(OCC(O)C1OC(c2ccccc2)OC(COC(=O)c2ccccc2)C1O)c1ccccc1 (stereo not given) ?
label 0

Test call, this molecule: CCCCC(CC)COC(C)=O (stereo not given)
label 0

How was CCOC(=O)C/C(C)=N\O classified in this test?
label 0

Give the logged outcome of this assay for the following molecule: CCOC(=O)C(O)C(O)C(=O)OCC (stereo not given)
label 0

Recorded call for CC1=NN(c2ccccc2)C(=O)/C1=C\N1CC(=O)NC1=S ?
label 0

What did the test return for Nc1ccc(N=Nc2ccc(S(=O)(=O)O)cc2)c2ccccc12 ?
label 0

Identify the outcome logged in this assay for the molecule shown: O=C(O)c1ccc(S(=O)(=O)O)cc1
label 0

What classification did CC(=O)OCC1OC(OC2=C(CC=C(C)C)C(=O)c3ccccc3C2=O)C(OC(C)=O)C(OC(C)=O)C1OC(C)=O (stereo not given) end up with in this test?
label 0

Please share the test call associated with COC(=O)c1cc(-c2ccc(Cl)c(Cl)c2)[nH]c(=O)c1C#N .
label 0

Called result for O=c1[nH]cc(Cl)cc1O
label 0

What did this assay record as the result for CCCC(=O)c1cc(C)ccc1OC ?
label 0

Hi team, can someone confirm the assay call for COc1ccc(/C(C#N)=C2C=C/C(=N/O)c3ccccc3\2)cc1 ?
label 0

Per the records of this test, what outcome belongs to O=[N+]([O-])c1ccc(S(=O)(=O)NN=C2CCCCC2)cc1 ?
label 0

Which outcome was assigned to Nc1ccc(N=Nc2ccc(O)cc2)c(N)n1 in this test?
label 0

# lookup: test call for CN(C)c1nc2c([nH]1)c(=O)n(C)c(=O)n2C
label 0

Hi, sorry to bother you, what did the test record for Cc1cc2ccccc2c(O)c1C#N ?
label 0

Kindly provide the recorded test outcome for the following molecule: O=C(O)c1cc([N+](=O)[O-])ccc1Cl
label 0

For this molecule, state the assay outcome: O=C(CN1CCNCC1)N1CCOCC1
label 0

Check the results log: what was the call for O=C(NCc1ccco1)Nc1c(Cl)cc(Cl)cc1Cl ?
label 0

Lab log entry: O=C(Nc1ccccc1)OCCc1ccccc1 — outcome as called in the assay?
label 0

Dear all, I need the recorded test outcome for O=C1NC(=O)C2C(=O)NC(=O)C1C21CCc2ccccc21 (stereo not given) , thank you.
label 0

Give the logged outcome of this assay for the following molecule: CNc1nc(NC)c2cn[nH]c2n1
label 0

Could you kindly confirm the outcome this assay logged for N#C/C(=C\c1cc(O)c(O)c(O)c1)C(N)=O ?
label 0

For COc1nc(N)nc2c1ncn2C1OC(CO)CC1O (stereo not given) , which call appears in the assay record?
label 0

Please let me know the test result on file for COc1ccc2c(NCCCCCCCCNc3c4ccccc4nc4cc(OC)ccc34)c3ccccc3nc2c1 .
label 1

For this molecule, state the assay outcome: COc1ncnc2c1cnn2C
label 0

Short answer needed: outcome of this test for CCC(C)(C)C1CCC(O)CC1 (stereo not given) ?
label 0

# fetch the recorded call for COC(=O)c1ccc(C(C)C)cc1 here
label 0

Outcome logged for C=CC(=O)OCCCCCCCC in this assay:
label 0

Tell me the assay call for CCCCC1C(=O)N(c2ccccc2)N(c2ccccc2)C1=O please.
label 0

Lab log entry: COc1cc2cc(OC(C)=O)c3cc4c(cc3c2c(OC)c1OC)OCO4 — outcome as called in the assay?
label 0

Answer briefly: the call reported for COc1ccccc1N=Nc1c(O)ccc2cc(S(=O)(=O)O)ccc12 in this assay.
label 0

What was the test verdict on CCCCCCCCO ?
label 0

Which outcome was assigned to CC(=O)Nc1cccc(Cl)c1C in this test?
label 0

Please state the recorded outcome for this molecule: O=C(N/N=C/c1ccccc1O)Nc1nn[nH]n1
label 0

Any idea what this test logged for CCS(=O)(=O)CCCl ?
label 0

What classification did CCN(CC)CCCC(C)Nc1ccnc(/C=C/c2ccc(Cl)cc2)c1 (stereo not given) end up with in this test?
label 1

So what was the verdict on CCC(=O)Oc1ccc(OC)cc1 in this test?
label 0

Please state the recorded outcome for this molecule: Oc1ccccc1-c1nnco1
label 0

====

Answer each item with its documented growth.
# System: SK-MEL-5 melanoma
# procedure_summary: NCI-60 one-dose screen, 48 h (100 = growth as untreated, 0 = no growth, -100 = all killed)
# measurement_conditions: 10 µM
Compounds without any hit were thinned out: in the full panel of roughly 83,000, 20% have a hit.
Output spec: scalar in %, unitless text.

Name the recorded growth for S=c1nn[nH]c2ccccc12 .
97.9

Given the entry O=c1c2ccccc2c(Br)c(Br)c2ccccc12 , report its measured growth.
109

Can you look up the measured growth of CC(=O)c1sc2c(c1OC(=O)c1ccc(Cl)cc1Cl)c(=O)n(-c1ccccc1)c(=S)n2-c1ccccc1 for me?
42.7

Would you mind telling me what growth value was observed for OCC1OC(OC2C(O)C(CO)OC2(CO)OC2OC(CO)C(O)C(O)C2O)C(O)C(O)C1O (stereo not drawn) ?
109

Recorded growth of O=C(O)C(Cc1ccccc1)C(=O)O , please.
89.6

Any idea what growth was measured for Cc1ccc(C(=O)N/N=C/c2ccc3c(c2)OCO3)cc1 ?
100

Which growth reading was recorded for the compound CCC(O)CC(CC)CO (stereo not drawn) ?
106

# lookup: growth of CN1C(=O)CN2CCc3ccccc3C2c2cc(Cl)ccc21 (stereo not drawn)
91.5

GET /values?readout=growth&item= Cc1ccc(CCCC(=O)O)c(C)c1
102

# lookup: growth of Cc1ccc(C(=O)c2ccccc2)c(C)c1
107

Could you share which growth value was measured for N#Cc1ccc(OC(=O)Nc2ccc(Cl)c(Cl)c2)cc1 ?
81.5

Look at this compound and give its reported growth. Nc1ccc(NC(=O)c2cccc(N)c2)cc1
103

Data request, read-out growth, for CC1NC(=O)NC1CCCCCC(=O)O (stereo not drawn)
102

====

# Tested on: OVCAR-8 ovarian
# procedure_summary: NCI-60 one-dose screen, 48 h (100 = growth as untreated, 0 = no growth, -100 = all killed)
# measurement_conditions: 10 µM
The panel holds about 83,000 compounds, 20% with a hit somewhere; the sample as a whole holds those more often.
assay_metric: growth (%)
Only the number, expressed in %, is required.

Which growth is listed for CCOC(=O)c1coc(C(=O)OCC)c1C(=O)OCC ?
118

Recorded growth of NC(CSC(c1ccccc1)(c1ccccc1)c1ccccc1)C(=O)O (centres undefined) , please.
22.6

Quick one: growth of NCC(=O)CCC(=O)O ?
104

Could you tell me which growth is on file for CCOC(=O)CSc1c([N+](=O)[O-])ncn1C ?
103

Query (compound): CCC(C)(O)c1ccc(C)cc1 (centres undefined) ; field requested: growth
104

If you can, please state the reported growth value of C#Cc1cccc(NC(=O)c2ccc(Cl)cc2Cl)c1 .
105

# get_value(readout='growth', item= COC(=O)CCCCC1=CCC2C(=O)C=C(O)C2C1 (centres undefined) )
98

Look up growth for this compound: [O-][N+](=Nc1cccc(Cl)c1)c1cccc(Cl)c1
114

Data request, read-out growth, for CCCCC1(CC)COC(CCC)OC1 (centres undefined)
101

Which growth value belongs to CCOC(=O)c1[nH]c(C)c(C(=O)O)c1C ?
105

Param item = O=[N+]([O-])c1ccc(CO)cc1 ; retrieve measured growth.
109

Look up growth for this compound: Oc1ccc(O)cc1
94.6

Item under review: CCOC(=O)C1OC1c1ccccc1 (centres undefined) . Reported growth?
106

Data request, read-out growth, for Cn1cnc2nc(Cl)nc(Cl)c21
24.3
